koff listing for selected binders.
target: T1, recombinant human VEGF165 (Sino biological) (human, UniProt P15692-4 27-191); experiment: Octet red96E BLI, VEGF165 amine-coupled on AR2G sensor, antibody as analyte, 30 C
T1 construct: Sino Biological VEGF165 was used in the Octet assay
T1 sequence (P15692 other isoform, or with tags, fused parts or gaps limits assumed): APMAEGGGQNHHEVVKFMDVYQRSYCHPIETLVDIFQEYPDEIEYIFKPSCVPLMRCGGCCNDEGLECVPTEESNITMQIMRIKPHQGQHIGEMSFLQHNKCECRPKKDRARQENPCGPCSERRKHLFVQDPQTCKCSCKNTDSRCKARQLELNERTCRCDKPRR
Provide the reading as a plain figure in s⁻¹.

Example results:
>>> data_value("Hz2 (humanized antibody made with SEQ ID NO 30 and SEQ ID NO 31) (antibody, V domains shown, Whole IgG from vector pCEP6-WPRE with an Fc part) VH: EVQLVESGGGLVQPGGSLRLSCAVSGIDLNRYSLTWIRQAPGKGLEWVAIVGGSGVTYYANWAKGRFTISRDDSKNTLYLQMNSLRAEDTAVYYCARGSDRSAYAPDIWGQGTLVTVSS VL: DIQLTQSPSSLSASVGDRVTITCQSSQSIYSNNYLAWYQQKPGKAPKLLLYQASKLASGVPSRFSGSGSGTDFTLTISSLQPEDFATYYCLGVYDDDADNAFGQGTKVEIKR")
"9.73e-07"
>>> data_value("RIgG1 (rabbit antibody made with SEQ ID NO 24 and SEQ ID NO 25) (antibody, V domains shown, Converted from scFv to whole IgG in vector pCEP6-WPRE, which carries an Fc part; The ELISA detected it with anti-hIgG-Fc; also called 2-19 (IgG form)) VH: QSVEESGGRLVTPGTPLTLTCTVSGIDLNRYSLTWVRQAPGKGLEWIGIVGGSGVTYYANWTKGRFTISKTSTTVDLKMTSLTTEDTATYFCARGSDRSAYAPDIWGPGTLVTISS VL: ELDMTQTPSSVSAAVGGTVTINCQSSQSVYSNNYLAWYQQKPGQPPKLLLYQASKLASGVSSRFSGSGSGTHFTLTISGVQCDDAATYYCLGVYDDDADNAFGGGTELEILR")
"3.08e-06"
>>> data_value("Hz1 (humanized antibody made with SEQ ID NO 28 and SEQ ID NO 29) (antibody, V domains shown, Whole IgG from vector pCEP6-WPRE with an Fc part) VH: EVQLVESGGGLVKPGGSLRLSCAASGIDLNRYSLTWVRQAPGKGLEWVGIVGGSGVTYYANWAKGRFTISRDSAKNSLYLQMNSLRAEDTAVYFCARGSDRSAYAPDIWGPGTLVTVSS VL: DIQMTQSPSSLSASVGDRVTINCQSSQSIYSNNYLAWYQQKPGKPPKLLLYQASKLASGVPSRFSGSGSGTDFTLTISSLQPEDVATYYCLGVYDDDADNAFGGGTELEIKR")
"3.22e-06"

Let's switch to this binder now.
Q) Look at this binder and give its reported koff. Hz2-F (antibody with SEQ ID NO 32 and SEQ ID NO 31) (antibody, human IgG1, L234A L235A, V domains shown, copies: 2 + 2) VH: EVQLVESGGGLVQPGGSLRLSCAVSGIDLNRYSLTWIRQAPGKGLEWVAIVGGSGVTYYANWAKGRFTISRDDSKNTLYLQMNSLRAEDTAVYYCARGSDRSAYAPDIWGQGTLVTVSS VL: DIQLTQSPSSLSASVGDRVTITCQSSQSIYSNNYLAWYQQKPGKAPKLLLYQASKLASGVPSRFSGSGSGTDFTLTISSLQPEDFATYYCLGVYDDDADNAFGQGTKVEIKR
A) 3.08e-06
